Reported pEC50 values follow for various compounds
Test System: hGPR65 (Homo sapiens)
Construct: expressed in transfected cells; host or cells: HeLa (ATCC CCL-2), lentiviral transduction, pLX317
Sequence (Q8IYL9 whole entry): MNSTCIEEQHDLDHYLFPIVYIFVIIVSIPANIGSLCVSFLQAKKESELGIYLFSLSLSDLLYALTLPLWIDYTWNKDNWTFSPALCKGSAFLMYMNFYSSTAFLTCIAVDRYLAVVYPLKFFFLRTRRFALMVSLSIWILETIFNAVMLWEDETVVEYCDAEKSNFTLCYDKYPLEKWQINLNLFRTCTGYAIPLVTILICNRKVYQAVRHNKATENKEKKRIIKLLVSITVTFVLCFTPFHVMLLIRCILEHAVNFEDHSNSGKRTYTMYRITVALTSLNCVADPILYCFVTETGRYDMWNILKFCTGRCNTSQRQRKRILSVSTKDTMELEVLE
Method Notes: cAMP detection (Lance Ultra), GPR65 KO HeLa reconstituted with hGPR65; 21K screen dose confirmation
Format: cell-based
Condition Info: HeLa GPR65 KO + hGPR65, pH 7.1, 30 min, normalized to DMSO and 100 μM forskolin; read-out: WT EC50
pEC50: −log10 of the molar value.

| Compound | Inequality Symbol | pEC50 |
| --- | --- | --- |
| CCCOc1cc2c(cc1CN(C)Cc1cc(=O)[nH]c3ccccc13)OCO2 | < | 4.00 |
| O=C(c1cc2c([nH]c1=O)CCC2)N1CCN(c2ccnc3cc(Cl)ccc23)CC1 | = | 4.70 |
| O=c1c(-c2ccccc2)nnc2sc(-c3ccc4c(c3)OCCO4)nn12 | < | 4.00 |
| CCCCC(CC)C(=O)Oc1ccc2c(c1)oc(=O)c1ccccc12 (stereo not shown) | < | 4.00 |
| Cc1cc2c(cc1-c1cncn1CCN(C)C1CCCC1)n(C)c(=O)n2C | < | 4.00 |
| CN1N=C(SCc2ccc(Cl)cc2Cl)Sc2c1cnn(C)c2=O [BTB09089, reference compound] | = | 5.22 |
| CCN1C[C@@H](COC)[C@]2(CCN(C(=O)N3CCCC3)C2)C1 | < | 4.00 |
| Cc1nccn1-c1ccc(CN(Cc2cccnc2)C2CC(C)(C)NC(C)(C)C2)cc1 | = | 4.24 |
| Nc1cccnc1Sc1nc2cccnc2s1 | < | 4.00 |
| Cn1cc(C(=O)c2ccc(F)cc2)c2ccnc(Cl)c21 | = | 4.32 |
| COc1ccc(NC(=O)CSc2nc3ccc(C)cc3cc2C#N)cc1 | < | 4.00 |
| Cc1nc(C2CCCNC2)cc(N(C)Cc2cccc3cnccc23)n1 (stereo not shown) | < | 4.00 |
| Cc1cnc(N)c(C(=O)C2CCN(C(=O)c3cnc(C)nc3C)CC2)c1 | = | 4.74 |
| Cn1ccc2c(-c3cccc(=O)[nH]3)ccnc21 | = | 4.04 |
| O=C(c1ccco1)N1CCN(c2ccnc3cc(Cl)ccc23)CC1 | = | 4.74 |
| c1ccc(-c2cc3ncnc(N4CCSCC4)c3s2)cc1 | < | 4.00 |
| O=C(O)CCCc1nc(-c2cccnc2)no1 | = | 4.38 |
| Nc1ccc2c(C(F)(F)F)cc(=O)oc2c1 | < | 4.00 |
| O=C(CN1CCC(c2ccncc2)CC1)N1CCOCC1 | < | 4.00 |
| CN(Cc1ccc2ncccc2c1)C(=O)[C@@H]1C[C@H](N)CN1C | = | 4.15 |
| O=C(CN1CCC(c2ccncc2)CC1)NCc1cccs1 | < | 4.00 |
| CN(C)CCOC(=O)C1CC2=C(CCCC2(C)C)CC1C(=O)O (stereo not shown) | = | 4.22 |
| CC(Sc1nc2ncnc(N)c2[nH]1)C(=O)O (stereo not shown) | = | 5.22 |
| N#Cc1cnc(SCc2cc(=O)[nH]c3ccccc23)nc1N | < | 4.00 |
| COC(=O)Nc1nc2ccc(-c3n[nH]c(=O)c4ccccc34)cc2[nH]1 | > | 5.00 |
| O=C1CC(N2CCN(c3ncccn3)CC2)C(=O)N1c1ccccc1 (stereo not shown) | = | 4.15 |
| Cc1ccc(C(=O)Cn2c(=O)n(C(C)C)c3nc(-c4ccc(F)cc4)nc(C(N)=O)c32)cc1 | < | 4.00 |
| Cn1ccc2c(-c3ccc(C(=O)N4CCCC4)cn3)ccnc21 | < | 4.00 |
| Cc1cc(C)n(CC(O)CN(Cc2ccco2)Cc2cccc3ncccc23)n1 (stereo not shown) | < | 4.00 |
| CCc1cc(CC)c2sc3ccccc3c(=O)c2c1 | < | 4.00 |
| O=C(Nc1cccc2nsnc12)c1sc2ccccc2c1Cl | > | 4.52 |
| CC(NC(=O)c1ccc2ncccc2c1)c1cc(=O)[nH]c(N2CCN(C)CC2)n1 (stereo not shown) | = | 4.08 |
| COC(=O)c1cc2c(s1)-c1cc(F)ccc1OC2 | = | 4.05 |
| CCN1CCCc2cc(-c3cncn3C(C)CN3CCOCC3)ccc21 (stereo not shown) | < | 4.00 |
